pKi: −log10 of the molar value.
Entries below carry reported pKi on human σ1 receptor (Homo sapiens, UniProt Q99720).
Sequence (Q99720 whole entry): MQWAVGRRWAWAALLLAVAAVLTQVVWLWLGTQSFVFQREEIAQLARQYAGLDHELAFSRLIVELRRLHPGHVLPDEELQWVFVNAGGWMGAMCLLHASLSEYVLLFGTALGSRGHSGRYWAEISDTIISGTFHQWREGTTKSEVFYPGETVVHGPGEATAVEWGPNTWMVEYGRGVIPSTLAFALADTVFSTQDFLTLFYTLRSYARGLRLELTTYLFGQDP

Worked cases, answers included:
{"columns": ["smiles.representation", "target.desc", "pKi"],
 "data": [
  ["CCN1C[C@]2(CC[C@H](N(C)Cc3ccccc3)CC2)OC2(CC2)C1=O", "human σ1 receptor (Homo sapiens, UniProt Q99720)", "> 7.00"],
  ["O=C1N(c2ccccc2)C[C@]2(CC[C@H](NCc3ccccc3)CC2)OC12CC2", "human σ1 receptor (Homo sapiens, UniProt Q99720)", "≤ 6.30"],
  ["CCN1C[C@]2(CC[C@@H](N(C)Cc3ccccc3)CC2)OCC1=O", "human σ1 receptor (Homo sapiens, UniProt Q99720)", "> 7.00"],
  ["CN[C@H]1CC[C@@]2(CC1)CN(c1ccccc1)C(=O)C1(CC1)O2", "human σ1 receptor (Homo sapiens, UniProt Q99720)", "≤ 6.30"],
  ["CCN1CC(C)(C)O[C@]2(CC[C@@H](N(C)CC(C)C)CC2)C1", "human σ1 receptor (Homo sapiens, UniProt Q99720)", "> 7.00"],
  ["CCN1CC2(CC2)O[C@]2(CC[C@@H](N(C)Cc3ccccc3)CC2)C1", "human σ1 receptor (Homo sapiens, UniProt Q99720)", "> 6.30"],
  ["CCN1C[C@]2(CC[C@@H](NCc3ccccc3)CC2)OC2(CC2)C1=O", "human σ1 receptor (Homo sapiens, UniProt Q99720)", "> 6.30"],
  ["CCN1C[C@]2(CC[C@H](NCc3ccccc3)CC2)OCC1=O", "human σ1 receptor (Homo sapiens, UniProt Q99720)", "≤ 6.30"]
]}

# evaluate next
# return pKi for `CCN1C[C@]2(CC[C@H](N(C)CCC(C)C)CC2)OC2(CC2)C1=O` , test system: human σ1 receptor (Homo sapiens, UniProt Q99720) > 6.30
